Target: Activated human plasma kallikrein (Enzyme Research Laboratories, HPKa 1303) (human, UniProt P03952 20-638)
Sequence (P03952 20-638 limits assumed): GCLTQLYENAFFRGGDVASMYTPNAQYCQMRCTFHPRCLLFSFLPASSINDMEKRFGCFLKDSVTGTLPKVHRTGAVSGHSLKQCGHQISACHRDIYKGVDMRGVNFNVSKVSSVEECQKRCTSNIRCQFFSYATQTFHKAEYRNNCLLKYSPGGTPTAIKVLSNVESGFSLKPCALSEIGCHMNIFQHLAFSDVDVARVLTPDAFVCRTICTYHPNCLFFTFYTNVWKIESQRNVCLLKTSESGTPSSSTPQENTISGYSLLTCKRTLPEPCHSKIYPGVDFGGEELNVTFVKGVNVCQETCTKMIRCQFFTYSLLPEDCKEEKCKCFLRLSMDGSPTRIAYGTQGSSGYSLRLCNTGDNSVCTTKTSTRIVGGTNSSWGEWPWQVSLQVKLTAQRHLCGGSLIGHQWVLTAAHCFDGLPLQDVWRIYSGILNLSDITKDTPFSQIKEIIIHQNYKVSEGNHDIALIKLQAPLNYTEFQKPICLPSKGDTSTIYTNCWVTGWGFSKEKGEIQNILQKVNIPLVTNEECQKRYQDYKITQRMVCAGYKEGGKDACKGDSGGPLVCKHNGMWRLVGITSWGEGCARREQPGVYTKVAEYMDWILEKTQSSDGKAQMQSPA
Test: cell-based or functional assay
Square brackets hold non-standard residues; d marks the D form. Ends that are not written are not given here.
REPORTED_METRIC: Avg. IC50 (nM)
The figure you give is taken to be in nM; do not add the unit.

Qu. If you can, please state the reported Avg. IC50 value of Ac-CNYWSPWT[dA]C-NH2 (cysteine pairing not given here) [R2226] .
Ans. 222

Qu. Entry to check: CNYWSPWTAA (also: Cyclo(1,10): ring between residues 1 and 10, bond kind not given here) [R2222]
Ans. 926
